Procedure text: Human HepG2 cell viability assay in 384 well format
Type: toxicity, cell-based
Set-up: dose 125 nL, time 70.5 hour; concentration not given beside the values
Condition details: HepG2 cells, read-out: Inhibition
Reported metric: cytotoxicity at 70.5 h (%)
API: value field is a number in %; no unit string.

Request: I am curious: what cytotoxicity at 70.5 h value has been reported for `CCOC1CC2(CCN(Cc3cccn3C)CC2)C1` ?
Result: 2.31

Request: Recorded cytotoxicity at 70.5 h for `Cc1nc2c(N3CCN(CCO)CC3)nc(N)nc2n1C` , please?
Result: 0.799

Request: Consider the compound shown here: CSc1nccc(N2CCC3(CCCN(Cc4cccc(C)c4)C3)C2)n1 (stereo not drawn) What is its recorded cytotoxicity at 70.5 h?
Result: -0.65

Request: Endpoint output: cytotoxicity at 70.5 h of `COc1ccc2cc(C(=O)NCCNc3ccc(C)nn3)[nH]c2c1` . Value?
Result: -5.63

Request: cytotoxicity at 70.5 h lookup needed for CCNC(=O)C1CCN(c2cc(-c3ccccc3)nc3cc(C)nn23)C1 (stereo not drawn) , thanks.
Result: -2.31

Request: Bench note: what cytotoxicity at 70.5 h did CNC(=O)C1(CCCc2ccncc2)CCN1 (stereo not drawn) show?
Result: -9.29

Request: Consider the compound shown here: `CCn1c(CC2CCN(C(=O)c3cc(CC(C)C)on3)CC2)n[nH]c1=O` What is its recorded cytotoxicity at 70.5 h?
Result: -2.52

Request: Would you mind telling me what cytotoxicity at 70.5 h value was observed for `O=C(Nc1cn[nH]c1)N1CCN(CCSc2ccccc2)CC1` ?
Result: 1.53

Request: Please give the measured cytotoxicity at 70.5 h for this compound: CCN(CC)CCCNCC1CCOC(C)(C)C1 (stereo not drawn)
Result: -3.64

Request: Name the recorded cytotoxicity at 70.5 h for Cn1cc(C(=O)N2CCCCC2CCc2ccc(O)cc2)cn1 (stereo not drawn) .
Result: -10.3

Request: Please look up its cytotoxicity at 70.5 h: `CC(C)c1cc(C2CCN(Cc3cc(F)cc(F)c3)CC2)[nH]n1`
Result: -1.12

Request: # get_value(readout='cytotoxicity at 70.5 h', item= `OCCNc1nc(NCCc2ccccc2)nc2nccnc12` )
Result: -1.57

Request: I'd like to know its cytotoxicity at 70.5 h. The compound in question is Cc1cc(=O)n2ncnc2n1CC(O)c1ccccc1Cl (stereo not drawn)
Result: -3.15

Request: If you can, please state the reported cytotoxicity at 70.5 h value of CN(C)c1ncc2c(n1)C1(CCN(CC3CC3)C1)COC2 (stereo not drawn) .
Result: -8.15

Request: So what does the record say about cytotoxicity at 70.5 h for `CCN(C)c1ncnc2c1CCN(Cc1nccs1)CC2` ?
Result: 6.96

Request: For `COc1ccc2c(ccn2CCC(=O)NCCC(=O)O)c1` , what is its reported cytotoxicity at 70.5 h?
Result: 4.49

Request: cytotoxicity at 70.5 h for `Cc1cnccc1NC(=O)CCc1ccsc1` ?
Result: -13.1

Request: Value lookup for cytotoxicity at 70.5 h; key = CC(C)(C(=O)N1CCC(C(N)=O)C1)c1ccccc1F (stereo not drawn)
Result: -2.99

Request: What value of cytotoxicity at 70.5 h has been reported for the following compound? `Cc1occc1C(=O)N1CCc2c(COCC3CC3)cncc2C1`
Result: -2.87

Request: Which cytotoxicity at 70.5 h value is on record for `CCn1cnnc1C1CCN(C(=O)c2ccc(Cl)s2)CC1` ?
Result: -15

Request: Which cytotoxicity at 70.5 h value is on record for CCCC1CCCN(C(=O)Nc2ccnc(C(=O)N(C)C)c2)CC1 (stereo not drawn) ?
Result: -6.22

Request: Given the entry `O=C1CCc2cc(C(=O)NCc3ccc(Cl)s3)ccc2N1` , report its measured cytotoxicity at 70.5 h.
Result: -3.83

Request: Could you share which cytotoxicity at 70.5 h value was measured for `CCn1cnnc1C1CCN(C(=O)c2ccc3c(c2)nnn3C)CC1` ?
Result: 22.3

Request: Can you look up the measured cytotoxicity at 70.5 h of N#Cc1cccnc1N1CCC2(CCCN(C3CCOCC3)C2=O)C1 (stereo not drawn) for me?
Result: -3.03

Request: What value of measured cytotoxicity at 70.5 h is listed for `N#Cc1ccc(NCCCN2C(=O)COc3ccccc32)nc1` ?
Result: -1.32

Request: Dear colleague, I am looking for the recorded cytotoxicity at 70.5 h of the following compound: `O=S1(=O)C[C@@H]2[C@H](C1)N(Cc1cc(Cl)cc(Cl)c1)CCN2CCO`
Result: -1.4

Request: Requested read-out: cytotoxicity at 70.5 h. Entry: COc1cc(CNC(C)Cn2cccn2)cc(Cl)c1OC (stereo not drawn)
Result: -4.38

Request: Give the measured cytotoxicity at 70.5 h of `COc1ncccc1C(=O)N1CC[C@H]2C[C@@H](c3noc(C)n3)O[C@@H]2C1` .
Result: -8.55

Request: For the compound COCCn1c2c(ccc1=O)CC(NC(=O)c1cscn1)CC2 (stereo not drawn) , what cytotoxicity at 70.5 h is on record?
Result: -4.76

Request: What value of cytotoxicity at 70.5 h has been recorded for this entry: `O=C(c1nc(N2CCCC2)ncc1Cl)N1CCN(Cc2ccsc2)CC1`
Result: 29

Request: Look at this compound and give its reported cytotoxicity at 70.5 h. CCC(NCc1ccccc1C)c1ccccc1OCC(=O)NC (stereo not drawn)
Result: 25.2

Request: Quick check: cytotoxicity at 70.5 h of `CC(C)c1noc(CN(C)C(=O)c2ncn[nH]2)n1` ?
Result: 3.61

Request: Returns the measured cytotoxicity at 70.5 h for the input compound. Input: CNC(=O)NC(=O)CN1CCCC(Cc2ccccc2OC)C1 (stereo not drawn)
Result: -6.62

Request: Data request, read-out cytotoxicity at 70.5 h, for `CCN(Cc1ccc(Cl)s1)S(=O)(=O)CCOC`
Result: -13.3

Request: Data request, read-out cytotoxicity at 70.5 h, for Cc1cnn(CC2CCCN2C(=O)c2ccc3nnc(C)n3c2)c1 (stereo not drawn)
Result: -1.07

Request: Fill in the blank: the reported cytotoxicity at 70.5 h of `Cc1n[nH]c(C)c1NC(=O)CN1CCn2c(nnc2C(C)C)C1` is ____.
Result: -7.95

Request: Give its cytotoxicity at 70.5 h value. Item: CN(C)CCOCC1CN(C(=O)N2CCCC2)Cc2ccnn2C1 (stereo not drawn)
Result: -5.66

Request: Report cytotoxicity at 70.5 h for `CCn1cc(CN2CCCN(C(=O)c3ccc(C#N)cc3)CC2)cn1` please.
Result: -4.62

----------
Procedure text: Human HepG2 cell viability assay in 384 well format
Format: toxicity, cell-based
Set-up: dose 125 nL, time 70.5 hour; concentration not given beside the values
Condition details: HepG2 cells, read-out: Inhibition
Reported metric: cytotoxicity at 70.5 h (%)
The reply should be a number in %, with the unit left off.

Request: Entry O=C1CCCN1CCN1CC=C(c2cnn(C3CCS(=O)(=O)C3)c2)CC1 (configuration not stated) : reported cytotoxicity at 70.5 h = ?
Result: -10.3

Request: Return reported cytotoxicity at 70.5 h; argument: `CCc1cc(NCCNC(=O)c2cccnc2)n2nc(C)c(C)c2n1`
Result: 21

Request: So what does the record say about cytotoxicity at 70.5 h for CC1N(c2cnn(C)c2)C(=O)COC12CCN(Cc1ccoc1)CC2 (configuration not stated) ?
Result: 2.62

Request: Which cytotoxicity at 70.5 h value belongs to `CCN1CCN(C(=O)c2cccn2Cc2ccccc2)CC1` ?
Result: -0.982

Request: Fill in the blank: the reported cytotoxicity at 70.5 h of `Cn1ccc(CN2CCC(OCCc3ccccc3)CC2)cc1=O` is ____.
Result: -5.72

Request: So what does the record say about cytotoxicity at 70.5 h for CC(O)CN1CCC(CNCc2cccc(C(N)=O)c2)CC1 (configuration not stated) ?
Result: -4

Request: Name the recorded cytotoxicity at 70.5 h for `CN(C)c1ccc(CC(=O)N[C@@H]2CCNC[C@H]2O)cc1` .
Result: -3.58

Request: Which cytotoxicity at 70.5 h value is on record for `CCO[C@@H]1CO[C@@]2(CCCN(C(=O)COc3ccccc3OC)C2)C1` ?
Result: -9.81

Request: Dear colleague, I am looking for the recorded cytotoxicity at 70.5 h of the following compound: O=C(COC1CCOC1)N(CC(F)F)c1cccc(Cl)c1 (configuration not stated)
Result: -3.13

Request: Request the reported cytotoxicity at 70.5 h associated with Cc1cccc(NC(=O)C2CCCN2C(=O)c2ccco2)c1C (configuration not stated)
Result: 11.4

Request: // cytotoxicity at 70.5 h lookup, key: `N[C@@H](Cc1ccccc1)c1nnc(S(=O)(=O)Cc2ccccc2)o1`
Result: 15.6

Request: Entry `CCOC(=O)CN(C)Cc1cnc(C)s1` : reported cytotoxicity at 70.5 h = ?
Result: 7.03
